- experiment summary: Plasma stability assay
- Type: in vitro ADME
- details: male, C57BL/6, mouse
parameter measured: remaining at 3 h, 1 μM

Known remaining at 3 h, 1 μM results, listed for orientation:
• CC1(C)CC(=O)C2=C(C1)Nc1cc(Br)ccc1NC2c1ccc(N2CCCC2)cc1 (stereo not drawn) [4t] = ≥ 100%
• CCN(CC)c1ccc(C2Nc3ccc(C(=O)c4ccccc4)cc3NC3=C2C(=O)CC(C)(C)C3)cc1 (stereo not drawn) [4hh] = ≥ 100%
• CC1(C)CC(=O)C2=C(C1)Nc1cc(C(F)(F)F)ccc1NC2c1ccc(N2CCCCC2)cc1 (stereo not drawn) [4ff] = ≥ 100%
• CCN(CC)c1ccc(C2Nc3ccc(-c4ccccc4)cc3NC3=C2C(=O)CC(C)(C)C3)cc1 (stereo not drawn) [4y] = 97.9%
• CC1(C)CC(=O)C2=C(C1)Nc1cc(C(=O)c3ccccc3)ccc1NC2c1ccc(N2CCCCC2)cc1 (stereo not drawn) [4jj] = ≥ 100%

# next compound below
## Input If you can, please state the reported remaining at 3 h, 1 μM value of CC1(C)CC(=O)C2=C(C1)Nc1cc(C(F)(F)F)ccc1NC2c1ccc(N2CCCC2)cc1 (stereo not drawn) [4ee] .
## Output 98.8%
